# ASSAY OVERVIEW: Mouse Activity and Screen Test Procedure (MAST): inhibition of spontaneous locomotion
# Assay type: in vivo, Swiss-Webster male mice
# REPORTED CONDITIONS: IP, 10 mg/kg, 1 h, read-out: Inhibition of motor activity
Binary call on inhibition in vivo at 10 mg/kg: 1.0 from 20% upward, 0.0 beneath that.

Consider the worked cases shown below.
>  <COMPOUND>
OC[C@H]1O[C@@H](n2cnc3c(NCC4(c5cccc(Cl)c5)CC4)ncnc32)[C@H](O)[C@@H]1O [Example 2]

>  <ANSWER LABEL>
1.0

$$$$
>  <COMPOUND>
OC[C@H]1O[C@@H](n2cnc3c(NCC4(c5cccc(Cl)c5)CCC4)ncnc32)[C@H](O)[C@@H]1O [Example 8]

>  <ANSWER LABEL>
1.0

$$$$
>  <COMPOUND>
OC[C@H]1O[C@@H](n2cnc3c(NCC4(c5cccs5)CC4)ncnc32)[C@H](O)[C@@H]1O [Example 3]

>  <ANSWER LABEL>
1.0

$$$$
>  <COMPOUND>
O[C@@H]1[C@H](O)[C@@H](CCl)O[C@H]1n1cnc2c(NCC3(c4ccccc4)CC3)ncnc21 [Example 5]

>  <ANSWER LABEL>
0.0

$$$$

Evaluate O[C@@H]1[C@H](O)[C@@H](CCl)O[C@H]1n1cnc2c(NCC3(c4cccs4)CC3)ncnc21 [Example 6] : inhibition in vivo at 10 mg/kg at minimum 20%?
0.0

Evaluate OC[C@H]1O[C@@H](n2cnc3c(NCC4(c5ccccc5)CCC4)ncnc32)[C@H](O)[C@@H]1O [Example 7, N6-((1-Phenylcyclobutyl)methyl)adenosine] : inhibition in vivo at 10 mg/kg at minimum 20%?
1.0

Evaluate OC[C@H]1O[C@@H](n2cnc3c(NCC4(c5ccccc5)CC4)ncnc32)[C@H](O)[C@@H]1O [Example 1] : inhibition in vivo at 10 mg/kg at minimum 20%?
1.0

Evaluate OC[C@H]1O[C@@H](n2cnc3c(NCC4(c5ccccc5)CCCCC4)ncnc32)[C@H](O)[C@@H]1O [Example 11, N6-((1-Phenylcyclohexyl)methyl)adenosine] : inhibition in vivo at 10 mg/kg at minimum 20%?
0.0

Evaluate OC[C@H]1O[C@@H](n2cnc3c(NCC4(c5cccs5)CCC4)ncnc32)[C@H](O)[C@@H]1O [Example 9] : inhibition in vivo at 10 mg/kg at minimum 20%?
1.0

Evaluate OC[C@H]1O[C@@H](n2cnc3c(NCC4(c5ccc(Cl)cc5)CC4)ncnc32)[C@H](O)[C@@H]1O [Example 12] : inhibition in vivo at 10 mg/kg at minimum 20%?
0.0

Evaluate OC[C@H]1O[C@@H](n2cnc3c(NCC4(c5ccccc5)CCCC4)ncnc32)[C@H](O)[C@@H]1O [Example 10] : inhibition in vivo at 10 mg/kg at minimum 20%?
0.0
